These data points were gathered from the MegaScale stability set (Tsuboyama et al. 2023).

B1: r16_88_TrROS_Hall (parent)
chain: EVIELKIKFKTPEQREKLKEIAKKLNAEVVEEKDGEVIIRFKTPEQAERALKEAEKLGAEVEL

Variants of: B1
Assay protocol: folding stability dG (cDNA display proteolysis); higher = more stable
Condition details: PBS, room temperature
Measured property: folding stability dG (kcal/mol)
Kindly answer with a numeric value in kcal/mol, unit omitted.

The following variants have reported results that may help.
[
  {
    "Mutation annotation": "I39N",
    "Measured property": "folding stability dG",
    "Recorded number": 2.82
  },
  {
    "Mutation annotation": "K33N",
    "Measured property": "folding stability dG",
    "Recorded number": 4.32
  },
  {
    "Mutation annotation": "I3Y",
    "Measured property": "folding stability dG",
    "Recorded number": 4.7
  },
  {
    "Mutation annotation": "L51I",
    "Measured property": "folding stability dG",
    "Recorded number": 4.41
  }
]

Report folding stability dG for L57F please. 4.33

Report folding stability dG for V29W please. 4.3

Report folding stability dG for E45M please. 4.46

Report folding stability dG for P12Y please. 4.91

Report folding stability dG for F41Y please. 4.23

Report folding stability dG for K10T please. 4.38

Report folding stability dG for V30A please. 4.58
